B1: Caulobacter ParB omega fusion; a variant is named by its letters at X, in order, B8GW30 (parent)
chain: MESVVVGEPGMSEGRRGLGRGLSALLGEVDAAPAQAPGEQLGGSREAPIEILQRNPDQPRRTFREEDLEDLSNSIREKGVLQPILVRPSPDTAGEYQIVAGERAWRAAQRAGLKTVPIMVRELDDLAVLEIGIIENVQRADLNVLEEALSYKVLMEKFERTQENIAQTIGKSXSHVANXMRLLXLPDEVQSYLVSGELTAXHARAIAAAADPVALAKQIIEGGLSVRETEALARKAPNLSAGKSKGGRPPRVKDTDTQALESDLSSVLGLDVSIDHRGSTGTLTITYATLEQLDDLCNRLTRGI

# Variants of: B1
# TEST NAME: one-hybrid fitness for binding NBS DNA (the Noc-binding site; scaled: cognate 1, non-cognate 0); higher = stronger binding
# APPLIED CONDITIONS: with NBS DNA site
The full ranking holds about 81,000 sequences; the median of “one-hybrid fitness for binding NBS DNA” is about -0.1, and the highest 2% start at about 0.36. What follows is part of a selection rich in the highest values, with near analogues and random picks from the rest.
PROPERTY MEASURED: one-hybrid fitness for binding NBS DNA

// known answers, use as guide
sequence_variant=QHDH property_measured="one-hybrid fitness for binding NBS DNA" result="≤ 0.2"
sequence_variant=QQVH property_measured="one-hybrid fitness for binding NBS DNA" result="≤ 0.2"
sequence_variant=QPGG property_measured="one-hybrid fitness for binding NBS DNA" result="≤ 0.2"
sequence_variant=QTMC property_measured="one-hybrid fitness for binding NBS DNA" result="≤ 0.2"
sequence_variant=QWNR property_measured="one-hybrid fitness for binding NBS DNA" result=0.304

What does the data say about its one-hybrid fitness for binding NBS DNA? Entry: `QSMN`
≤ 0.2

What does the data say about its one-hybrid fitness for binding NBS DNA? Entry: `AHHA`
≤ 0.2
